Tested on: M14 melanoma
Experiment: NCI-60 one-dose screen, 48 h (100 = growth as untreated, 0 = no growth, -100 = all killed)
Settings: 10 µM
This is part of a sample that, as a whole, favours compounds with a hit. Of some 83,000 tested, about 20% had one in any assay.
ATTRIBUTE_MEASURED: growth (%)
Number in %, nothing else.

// fetch growth for CS(=O)(=O)c1nccc(-c2c(-c3cccc(O)c3)nc3sccn23)n1 ; system: M14 melanoma
94

// fetch growth for COc1ccc(-c2cc(-c3ccc(Cl)cc3)nc(SCCCC(=O)NO)n2)cc1 ; system: M14 melanoma
-31.1

// fetch growth for Cc1ccc(C)c(COc2cc(NC(=O)c3ccc4c(c3)OCO4)ccc2N(C)S(C)(=O)=O)c1 ; system: M14 melanoma
-34.2

// fetch growth for COc1ccc(N(C)c2ncnc3occ(C)c23)cc1 ; system: M14 melanoma
0.316

// fetch growth for CCCCN(CCCC)C(=O)[C@H](CC)[C@@H]1CC[C@@H](C)[C@@H]([C@H](C)[C@@H](O)[C@@H](C)C(=O)[C@H](CC)C2O[C@]3(C=C[C@@H](O)[C@]4(CC[C@@](C)([C@H]5CC[C@](O)(CC)[C@H](C)O5)O4)O3)[C@H](C)C[C@@H]2C)O1 (stereo partly drawn) ; system: M14 melanoma
14.2

// fetch growth for Clc1nc2ccccc2cc1Cn1nnc(Cc2ccccc2)n1 ; system: M14 melanoma
73.6

// fetch growth for Cc1cc(SCc2ccccc2)nc(N)n1 ; system: M14 melanoma
115

// fetch growth for COc1cc(-c2nn(-c3cccc(NC(=O)CCN4CCN(c5ccccc5)CC4)c3)cc2-c2ccncc2)ccc1Cl ; system: M14 melanoma
10.8

---

Test system: MOLT-4 leukemia
Experiment: NCI-60 one-dose screen, 48 h (100 = growth as untreated, 0 = no growth, -100 = all killed)
Conditions: 10 µM
Compounds without any hit were thinned out: in the full panel of roughly 83,000, 20% have a hit.
The threshold is inclusive: growth of exactly 20% counts as Met; values below receive Not met.

hey, is growth for this one >= 20%? CN(C)c1nc(N)c2nccnc2n1
Met

hey, is growth for this one >= 20%? CCc1ccc(-c2ccc(-n3nc(C)c4c(N)nc(Cc5ccccc5)nc43)cc2)cc1
Met

hey, is growth for this one >= 20%? CN(C)CCCOc1ccc(NC2=C(Cl)C(=O)C(Nc3ccc(OCCCN(C)C)cc3)=C(Cl)C2=O)cc1
Not met

hey, is growth for this one >= 20%? CNC(=O)c1cc(Oc2ccc3c(c2)sc2nc(-c4ccc(N)cc4)cn23)ccn1
Not met

hey, is growth for this one >= 20%? CC(C)(C)OC(=O)CN1CCc2c(sc3ncnc(N/N=C/c4cccc5ccccc45)c23)C1
Not met

hey, is growth for this one >= 20%? C[C@]12CC[C@@H]3c4ccc(O)cc4CC[C@H]3[C@@H]1CC[C@@H]2NS(=O)(=O)c1ccc(C(F)(F)F)cc1
Not met

hey, is growth for this one >= 20%? c1ccc(/C(=N\Nc2ccc3ccccc3n2)c2ccccn2)cc1
Not met

hey, is growth for this one >= 20%? CC1=NN(C(=O)c2nn(-c3ccc(Cl)cc3)cc2O)C(=O)C1
Met

hey, is growth for this one >= 20%? O=C1CC(=O)N(C(=O)c2nn(-c3ccc(Cl)cc3)cc2O)N1
Not met

hey, is growth for this one >= 20%? COc1cc(C(=O)n2nc(-c3cc(OC)c(OC)c(OC)c3)nc2N)cc(OC)c1OC
Met

hey, is growth for this one >= 20%? Clc1nc2ccccc2cc1Cn1nnc(Cc2ccccc2)n1
Met

hey, is growth for this one >= 20%? CCn1c(SCc2ccc(C)cc2)nnc1-c1nn(-c2ccc(Cl)cc2Cl)c(-c2ccc(Cl)cc2)c1C
Not met

hey, is growth for this one >= 20%? Cc1c2cnccc2c(C)c2c1c1cc(O)ccc1n2C(C)C
Not met

hey, is growth for this one >= 20%? CC[C@@H](C(=O)[C@H](C)[C@H](O)[C@@H](C)[C@H]1O[C@H]([C@@H](CC)C(=O)O)CC[C@H]1C)C1O[C@]2(C=C[C@@H](O)[C@]3(CC[C@@](C)([C@H]4CC[C@](O)(CC)[C@H](C)O4)O3)O2)[C@H](C)C[C@@H]1C (some centres undefined)
Not met

hey, is growth for this one >= 20%? NC(=O)c1cccc(-n2ccc3cc(NC(=O)Nc4ccc(Cl)c(C(F)(F)F)c4)ccc32)n1
Met

hey, is growth for this one >= 20%? OCC1OC(n2cnc3c(NCc4ccco4)ncnc32)C(O)C1O (centres undefined)
Not met

hey, is growth for this one >= 20%? CCN(CC)CCCC(C)Nc1c2ccc(Cl)cc2nc2ccc(OC)cc12 (centres undefined)
Not met

hey, is growth for this one >= 20%? O=C(CCC(C(=O)c1ccccc1)c1ccccc1)c1ccccc1 (centres undefined)
Met

Hello, the source for this data is PubChem BioAssay (NCI), in case you need it.
